# System: MS2 coat protein
# test.protocol: apparent KD of MS2 coat protein, switch ON state; designed switch direction (-1 OFF switch, 1 ON switch): -1; higher = weaker reporter binding
# recorded.conditions: FMN input: 0 or 200 uM; Eterna round: R93 (includes R88 designs)
Quick reference for apparent KD of MS2 coat protein among some sequences
measurement.name: apparent KD of MS2 coat protein (nM)

1. AACAGUACAGGAUAUACAUGAGGAUCACCCAUGUAAAAAUAAAAGGGAAUCUCAAAAAGUAGAAGGGUACUGGA [Moding Maslow revisited (73) 13]
72.5
2. AAAAGGAUAGGAUAUACAUGAGGAUCACCCAUGUGAAUAAAUAAAAGAAAUAAAGAAAGUAGAAGGGUCAAGAA
25.8
3. AAGAACCUAGGAUAUACAUGAGGAUCACCCAUGUAAAAGAAAGAAAGGGAAAAGAAAAGUAGAAGGAGGAAGAA [Heqakheperre Shoshenq II]
12.1
4. AUCAUGUCAGGAUAUCGUGCAGCUACCGAAAGGUAGCUGCACGAGAAGGGACAUGAGGAUCACCCAUGUAUGAA
27.7
5. AAAAUACAUGAGGAUCACCCAUGUGAGGAUAUGAGAAAGCAAAUAAAAUAAAGCAAACUCAGAAGGCACAAAAA [EX 1 May 25]
39.5
6. AAAAAACAUGAGGAUCACCCAUGUAAGGAUAUGCUCGUAAGUGCGAAAGCACAAAUGAGCAGAAGGUACAAAAA [66%, Wbt, 44]
19.2
7. AGUCAUACAGGAUAUACAUGAGGAUCACCCAUGUUUAUCCUAAAAAGGUGAUCCUCAUGUAGAAGGGUAUGACA [EX3 210: Super Stable 10]
12.4

---

# System: MS2 coat protein
# test.protocol: apparent KD of MS2 coat protein; designed switch direction (-1 OFF switch, 1 ON switch): -1; higher = weaker reporter binding
# recorded.conditions: input ligand: none
Quick reference for apparent KD of MS2 coat protein among some sequences
measurement.name: apparent KD of MS2 coat protein (nM)

1) AAACGCCGAGGAUAUACCCAACCAGUCCUCUAAAGAAGAAAACAUGAGGAUCACCCAUGUAGAAGGCGGUGCAA [Anorti] (Eterna round: R97, puzzle: Exclusion 2)
28.1
2) CAUUAUUAUCGAGGAUAUCCUAUUGUAAUUCUGGGAGAAGGCGGACUCAACAUGAGGAUCACCCAUGUAAGACGGGUACUAGAU [Ex NG1 #21] (Eterna round: R96, puzzle: Exclusion NG 1)
92
3) CUCAGGUGAGGAUAUGCUUAAGGAUCGGUACACCGACACCUGUAGAAGGCACAUGAGGAUCACCCAUGUUAGGC [Eternabot (L1) Solution 68] (Eterna round: R97, puzzle: Exclusion 4)
27.9
4) GGAAGAGAGAUAGGAUAUUAAAGGAAGAUGGUGAGAGAGACAUGAGGAUCACCCAUGUAAAGGAAUAAGAAGGGUCAGAAGGAA [EXNG2 V2 g] (Eterna round: R96, puzzle: Exclusion NG 2)
184
5) CGGGACCGAGGAUAUACAUGUGGACUCGAGUUGACGUUGGGACAUGAGGAUCACCCAUGUAGAAGGCGGAUCUU [Eternabot (L2) Solution 57] (Eterna round: R97, puzzle: Exclusion 2)
741
6) UAACUUUUUGUAAGGAUAUCGGUCCCAAGGGACAACGAGAAGGUACAUGAGGAUCACCCAUGUGAAAUAAGAAU [Mod of Zala 20 - Jieux - Brourd's Mod of Exclusion 4] (Eterna round: R97, puzzle: Brourd's mod of Exclusion 4)
22.7
7) GCACGGAGUGUAGGAUAUCUGUGCGAUUAGCUCAGAGAAGGACACAUGAGGAUCACCCAUGUGUAACUCAACAAUAAUCCGUGC [Eli exng1 - 073] (Eterna round: R96, puzzle: Exclusion NG 1)
11.9
8) UAGGACAAAGGAUAUACGUGUUAUGAUCGGGAUAACAAAAGACAUGAGGAUCACCCAUGUAGAAGGUUGCUUGA [EX2 B.25] (Eterna round: R97, puzzle: Exclusion 2)
17.8
9) UAAAUGUCAGGAUAUUGUUAAUUUAGUUGUUUGUAUUAGUUCGAGAAGGGACAUGAGGAUCACCCAUGUUAUUU [Ex4 #55] (Eterna round: R97, puzzle: Exclusion 4)
31.9
10) UAUGUGUCAGGAUAUUAGUAGUAAAUAAAUAAAAUUAUUACUGAGAAGGGACAUGAGGAUCACCCAUGUACCUU [JR_Ex4_Sub051] (Eterna round: R97, puzzle: Exclusion 4)
16.2

---

# Test system: MS2 coat protein
# test.protocol: apparent KD of MS2 coat protein, switch ON state; designed switch direction (-1 OFF switch, 1 ON switch): -1; higher = weaker reporter binding
# recorded.conditions: FMN input: 0 or 200 uM; Eterna round: R93 (includes R88 designs)
measurement.name: apparent KD of MS2 coat protein (nM)

1) AAAGGACGAGGAUAUACAUGAGGAUCACCCAUGUAAAAAACAUAGUAAAAGAGCUUGUGUAGAAGGCGUCCAAA [Meechl Ex3 2 R2 v8]
94.5
2) AAGAAGUCAGGAUAUGCCAGAGAUCAAGAAAGUGACGAGUAGCAGAAGGGACAUGAGGAUCACCCAUGUAAAGA [Opal 8]
45.9
3) AAAGUGUCAGGAUAUGCGAAGGCAUCUGACAGAUGAGGAUCGCAGAAGGGACAUGAGGAUCACCCAUGUAAAAA
65.6
4) AAAAAACAUGAGGAUCACCCAUGUGAGGAUAUGCGAAACAAAAAAAACAAAAACAAAAGCAGAAGGCACAAAAA [Amethyst 33]
25
5) AAAGGACGAGGAUAUACAUGAGGAUCACCCAUGUAAAAAACAUAAAAAAAGAACUUAUGUAGAAGGCGUCCAAA [69%, Moding Meechl, 3]
52.7
6) AUAAGUCGAGGAUAUACAAAAUGCUAGCGAAAGCUAGCAUAACAUGAGGAUCACCCAUGUAGAAGGCGACAAUA [Tetraloop hairpin BlockHead Variation2]
21.7

---

# Tested on: MS2 coat protein
# test.protocol: apparent KD of MS2 coat protein; designed switch direction (-1 OFF switch, 1 ON switch): 1; higher = weaker reporter binding
# recorded.conditions: Eterna round: R95; input ligand: FMN 200 uM
Quick reference for apparent KD of MS2 coat protein among some sequences
measurement.name: apparent KD of MS2 coat protein (nM)

1) GAGAGAGGAAGCGAGGAUAUCGUGUUGAGUACAUGAGGAUCACCCAUGUUGUAGGUAGAGGUAGGCGAGAAGGCGCAGGAGAGGU [JR_SS2_Sub098] (puzzle: Same State 2)
106
2) GGUUUAGCCAGGCGCAAUUGCGCCUGAAAACAUGAGGAUCACCCAUGUUUGGGACAAGCUUUGCUCCUCGUCUUGCA [Edreisza] (puzzle: Sensor for hsa-mir-208a)
243
3) AGUCCAGCCUGAGCUGGACAAAAGCAUGUACAUGAGGAUCACCCAUGUUCAUGUACAAGCUUUUUGCUCGUCUUGCA [salish99_208a_r3_104x] (puzzle: Sensor for hsa-mir-208a)
450
4) AACUAUCUAUCUCAGGAUAUCAUGUCAAAGACAUGAGGAUCACCCAUGUACCAGGAAACUGGUUAUGAGAAGGGAGAUAGAUAGU [Mat - Same State 2 - Mod - D41] (puzzle: Same State 2)
127
5) UAGAAACAUGAGGAUCACCCAUGUGUCAAAGACAUAGGAUAUCGUGACCGGCGCCGGACACGAGAAGGGUGGUAAA [Quingees] (puzzle: Same State 1)
387

---

# System: MS2 coat protein
# test.protocol: apparent KD of MS2 coat protein; designed switch direction (-1 OFF switch, 1 ON switch): 1; higher = weaker reporter binding
# recorded.conditions: Eterna round: R98; input ligand: FMN 200 uM
measurement.name: apparent KD of MS2 coat protein (nM)

1. UCACUCACGUCAGGAUAUGGAUCGGAAAACGAUCCAGAAGGGACCUGCAAACGUGAGGAUCACCCACGUUCCAAUAACGAGUGA [SameSame 11 - Jieux - Same State NG 1]
29.7
2. AUAGGUUAAGGAGGAUAUAGAGGGAGAAGUAAACAUGAGGAUCACCCAUGUAUUUAAUUAGUUUACUAGAAGGCUUGUGAUUGU
50.9
3. CAGCAAUUCUUAGGAUAUGCUCAGGAAUACUGAGCAGAAGGAAGAUAUACCUGAGGAUCACCCAGGUUAAACUGAAGCUGAAUA [Same State NG1 - A3C, U17G Submission 7B]
17.4
4. GCACUCAAGUUAGGAUAUGGAUCGGAAACCGAUCCAGAAGGAACACGAAAACAUGAGCAUCAGCCGUGUUCCAGAAACGAGUGC [SameSame 14 - Jieux - Same State NG 1]
347
5. UGAUCGCUUGGAGGAUAUCCAACUAUCAUAGUUGGAGAAGGCCAAGCUACAGAGCUAAGCUUGGAAGUCACUUCCGAUCAACAC [pwkr ssNG1 F9.4.3]
49.7
6. CAUGUCCUCACAGGAUAUGCACCACUUUGUGGUGCAGAAGGGUGGAAACAUGAGGAUCACCCAUGUGGACAUGAUAUAUUUAAU [Denovo 7]
22.4
7. GUGCACACUCGAGGAUAUCGGAGAUUUCUCCUUCGAGAAGGCGAUUCGUGCCGUGUUAUUCUGGACAUGAGGAUCACCCAUGUG [LRO026_SS NG 1 mod JR_SSNG1_Sub034]
35.4
8. UUUACAUGAGGAUCACCCAUGUCUGUCACGCGUGUGUGCAAUCAGGAUAUGAUCUCAAGAAUGAAUUAGAAGGGAUAACGUGAG [Attempt 5]
354
9. CUGCGAUUCUUAGGAUAUCGAGUGGAAUACACUCGAGAAGGAAGAAUAACCUGAGGAUCACCCAGGUAAUACUGAAGCAGAAUA [Same State NG1 - A3C, U17G Submission 9C]
23.4
10. AAAACAUGAGGAUCACCCAUGUAUAGAUCGGUUGUUAGGAGUGAGGAUAUGCUUAAAAUAAGGUAGCAGAAGGCACUGGGUACA [JR_SSNG3_Sub071]
23.6
11. AAAUAAAAUAUAGGAUAUGGAAACAUGAGGAUCACCCAUGUAAAAUAAAAUAAAUAAUAAUAUAACCAGAAGGAUAAAAUAUAA [LRO002_SS NG 2]
36.1
12. GUAGCAUACCGAGGAUAUUCAUAUAUGAAAAUAACAUGAGGAUCACCCAUGUGGCGAAAGCCUUGGGAGAAGGCGGAAUGCUAC [Xeinanis 75 22]
34.4
13. AGAAUGACAUGAGGAUCACCCAUGUUGGGAAAACCCGUAACUCAGGAUAUGUACGCGAAAGACCGACAGAAGGGAGAUCUACAC [Amaes]
43.3
